Ref: paper PMC6147116

Give pIC50 for every item shown.
Molecular target: steroid sulfatase (STS) (Homo sapiens, UniProt P08842)
Construct: from tissue; host or cells: human term placenta, microsomal fraction
Sequence (P08842 22-583): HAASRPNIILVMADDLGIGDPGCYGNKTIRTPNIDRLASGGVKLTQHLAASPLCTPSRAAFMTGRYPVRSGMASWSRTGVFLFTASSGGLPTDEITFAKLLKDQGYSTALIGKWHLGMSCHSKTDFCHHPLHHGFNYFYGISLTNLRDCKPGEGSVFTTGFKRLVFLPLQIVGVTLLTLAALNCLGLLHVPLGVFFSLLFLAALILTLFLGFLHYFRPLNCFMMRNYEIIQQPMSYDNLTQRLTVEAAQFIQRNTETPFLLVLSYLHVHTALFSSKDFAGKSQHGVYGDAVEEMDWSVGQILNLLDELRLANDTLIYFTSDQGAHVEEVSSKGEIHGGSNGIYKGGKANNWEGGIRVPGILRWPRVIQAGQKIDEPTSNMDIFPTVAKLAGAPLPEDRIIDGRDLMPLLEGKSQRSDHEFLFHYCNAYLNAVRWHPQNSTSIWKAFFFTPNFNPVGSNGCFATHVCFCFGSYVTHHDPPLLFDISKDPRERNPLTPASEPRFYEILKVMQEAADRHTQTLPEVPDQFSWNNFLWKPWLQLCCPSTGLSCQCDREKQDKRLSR
Test: STS inhibition, in vitro radiosubstrate incubation (release of E1 from E1S), human placental microsomes; Dixon kinetic analysis
Format: biochemical
By convention, pIC50 is the negative base-10 log of a molar concentration.

Look up pIC50: C[C@]12CCC[C@H]1[C@@H]1CCc3c(cc(Br)c(O)c3Br)[C@H]1CC2 [16b]
5.12

Next compound up: C[C@]12CC[C@@H]3c4ccc(O)c(Cl)c4CC[C@H]3[C@@H]1CCC2=O
5.80

Do the same for C[C@]12CC[C@@H]3c4ccc(O)cc4CC[C@H]3[C@@H]1CCC2=O [E1 (4), estrone, reference compound] please
4.62

Would you mind doing C[C@]12CC[C@@H]3c4cc(Cl)c(O)c(Cl)c4CC[C@H]3[C@@H]1CCC2=O as well?
5.52

* * *

Target: steroid sulfatase (STS) (Homo sapiens)
Construct: from tissue; host or cells: human term placenta, microsomal fraction
Assay: STS inhibition, in vitro radiosubstrate incubation (release of E1 from E1S), human placental microsomes; Dixon kinetic analysis
Type: biochemical
Conditions: 10 µM test compound; non-inhibited control 100%; mean ± SD, n = 3; read-out: STS Rel.conv. ± SD
recorded-endpoint: remaining activity at 10 µM (%)
Give just the number in %; leave the unit off.

I'd like to know its remaining activity at 10 µM. The compound in question is C[C@@]12CC[C@@H]3c4cc(Br)c(O)cc4CC[C@H]3[C@@H]1CCC2=O [10b]
81

Input C[C@@]12CC[C@@H]3c4cc(Br)c(O)c(Br)c4CC[C@H]3[C@@H]1CCC2=O [12b]
71

Another compound to check: C[C@]12CC[C@@H]3c4cc(I)c(O)cc4CC[C@H]3[C@@H]1CCC2=O
64

Please answer likewise for C[C@@]12CC[C@@H]3c4cc(Cl)c(O)cc4CC[C@H]3[C@@H]1CCC2=O [10c]
57

Would you mind doing C[C@]12CCC[C@H]1[C@@H]1CCc3c(cc(I)c(O)c3I)[C@H]1CC2 [16a] as well?
59

* * *

Give remaining activity at 10 µM for every item shown.
Biological target: human aromatase (Homo sapiens)
Construct: from tissue; host or cells: human term placenta, microsomal fraction
Sequence (P11511 whole entry): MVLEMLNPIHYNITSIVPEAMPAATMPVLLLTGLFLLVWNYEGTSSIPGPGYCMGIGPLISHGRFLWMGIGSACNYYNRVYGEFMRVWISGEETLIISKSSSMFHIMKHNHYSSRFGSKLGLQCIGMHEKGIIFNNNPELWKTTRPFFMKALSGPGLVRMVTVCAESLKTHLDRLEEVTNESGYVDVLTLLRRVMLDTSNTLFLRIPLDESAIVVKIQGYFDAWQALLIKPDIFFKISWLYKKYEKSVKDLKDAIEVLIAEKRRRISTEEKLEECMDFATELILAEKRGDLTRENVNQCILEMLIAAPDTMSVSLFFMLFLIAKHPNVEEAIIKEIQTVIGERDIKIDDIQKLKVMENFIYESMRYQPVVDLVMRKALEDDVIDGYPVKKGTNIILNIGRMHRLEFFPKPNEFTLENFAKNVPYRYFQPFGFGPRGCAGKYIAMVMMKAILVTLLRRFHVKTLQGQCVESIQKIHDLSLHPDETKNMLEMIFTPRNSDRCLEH
Test: Aromatase inhibition, in vitro radiosubstrate incubation (testosterone to E2 conversion), human placental microsomes
Format: biochemical
Conditions: 10 µM test compound; non-inhibited control 100%; mean ± SD, n = 3; read-out: Arom Rel.conv. ± SD
Entry rule: numbers only, all in %.

Suppose we examine the compound C[C@]12CCC[C@H]1[C@@H]1CCc3cc(O)c(I)cc3[C@H]1CC2 [14a] ; what remaining activity at 10 µM value has been reported?
89

Next entry: C[C@]12CCC[C@H]1[C@@H]1CCc3cc(O)c(Cl)cc3[C@H]1CC2 [14c]
88

Also C[C@]12CC[C@@H]3c4ccc(O)c(Br)c4CC[C@H]3[C@@H]1CCC2=O ?
91

For C[C@]12CCC[C@H]1[C@@H]1CCc3c(ccc(O)c3Cl)[C@H]1CC2 [15c] then?
89

Similarly, C[C@@]12CC[C@@H]3c4ccc(O)c(I)c4CC[C@H]3[C@@H]1CCC2=O [11a] ?
90

Now the same for C[C@]12CC[C@@H]3c4ccc(O)c(I)c4CC[C@H]3[C@@H]1CCC2=O
88

Can you handle C[C@@]12CC[C@@H]3c4cc(I)c(O)c(I)c4CC[C@H]3[C@@H]1CCC2=O [12a] next?
91

Then C[C@]12CCC[C@H]1[C@@H]1CCc3c(ccc(O)c3I)[C@H]1CC2 [15a] ?
92

Proceed to C[C@]12CCC[C@H]1[C@@H]1CCc3c(ccc(O)c3Br)[C@H]1CC2 [15b]
90
